Particulars: in n-butanol, 278.15 K
Property Label: solubility (mole fraction)
Numbers only.

q: Which measured solubility (mole fraction) value corresponds to CC(=O)Nc1ccc(OC(=O)c2ccccc2OC(C)=O)cc1 ?
a: 0.000302

----------
Particulars: in ethyl formate, 293.15 K
Property Label: solubility (mole fraction)

q: Which solubility (mole fraction) is reported for this compound? CC(=O)Nc1ccc(OC(=O)c2ccccc2OC(C)=O)cc1
a: 0.00165

----------
Particulars: in ethyl formate, 283.15 K
Property Label: solubility (mole fraction)

q: Any idea what its solubility (mole fraction) is? The compound is CC(=O)Nc1ccc(OC(=O)c2ccccc2OC(C)=O)cc1
a: 0.00111
